Values were extracted from ChEMBL document CHEMBL1136425.

Each item that follows carries a reported pIC50.
- target.of.assay: Protein farnesyltransferase (Homo sapiens, UniProt P49354+P49356)
- test.protocol: Inhibition of [3H]farnesyl pyrophosphate binding to human farnesyltransferase
As a rule, pIC50 stands for the negative log10 of the concentration, concentration in M.

**Q:** Which measured pIC50 belongs to c1cnc2c(c1)ccc1cccnc12 , tested on Protein farnesyltransferase (Homo sapiens, UniProt P49354+P49356)?
**A:** 2.40

**Q:** Which measured pIC50 belongs to CCCC[C@@H](C)/C=C(C)/C=C(\C)C(=O)NC1=C[C@@](O)(/C=C/C=C/C=C/C(=O)NC2=C(O)CCC2=O)[C@@H]2O[C@@H]2C1=O , tested on Protein farnesyltransferase (Homo sapiens, UniProt P49354+P49356)?
**A:** 4.92

**Q:** Which measured pIC50 belongs to NCCN , tested on Protein farnesyltransferase (Homo sapiens, UniProt P49354+P49356)?
**A:** 1.81

**Q:** Which measured pIC50 belongs to c1ccc(-c2ccccn2)nc1 , tested on Protein farnesyltransferase (Homo sapiens, UniProt P49354+P49356)?
**A:** 1.00

**Q:** Which measured pIC50 belongs to CN(C)c1cc(CNCCS)nc(CNCCS)c1 , tested on Protein farnesyltransferase (Homo sapiens, UniProt P49354+P49356)?
**A:** 3.21
